src = patent US4536346A

// reported inhibition at 5.2 µg/mL per item
# testedSystem: fatty acyl CoA: cholesterol acyl transferase (ACAT) (Rattus norvegicus, UniProt O70536)
# Construct: The supernatant, containing the microsomal fraction, served as the source of the cholesterol-esterifying enzyme; from tissue; host or cells: rat adrenals (1,000 x g supernatant containing the microsomal fraction)
# protocolText: Inhibition of enzymatic esterification of cholesterol (ACAT) in rat adrenal supernatant containing the microsomal fraction
# Type: biochemical
# runConditions: final concentration of test compound 5.2 μg./ml., percent inhibition of the ACAT enzyme compared to control values

Query block: Query the reported inhibition at 5.2 µg/mL for fatty acyl CoA: cholesterol acyl transferase (ACAT) (Rattus norvegicus, UniProt O70536); item: "Cc1ccc(C(=CC(=O)Nc2ccc(C(=O)O)cc2)c2ccc(C)cc2)cc1"
Result block: 89%

Others:
Query block: Query the reported inhibition at 5.2 µg/mL for fatty acyl CoA: cholesterol acyl transferase (ACAT) (Rattus norvegicus, UniProt O70536); item: "Cc1ccc(C(CC(=O)Nc2ccc(C#N)cc2)c2ccc(C)cc2)cc1"
Result block: 90%

Query block: Then this compound: "COc1ccc(NC(=O)CC(c2ccc(OC)cc2)c2ccc(OC)cc2)cc1"
Result block: 58%

Query block: Then this compound: "CCOC(=O)c1ccc(NC(=O)C=Cc2ccc(Cl)cc2)cc1"
Result block: 51%

* * *

// reported inhibition at 5.2 µg/mL per item
# testedSystem: fatty acyl CoA: cholesterol acyl transferase (ACAT) (Rattus norvegicus, UniProt O70536)
# Construct: The supernatant, containing the microsomal fraction, served as the source of the cholesterol-esterifying enzyme; from tissue; host or cells: rat adrenals (1,000 x g supernatant containing the microsomal fraction)
# Sequence (O70536 1-545): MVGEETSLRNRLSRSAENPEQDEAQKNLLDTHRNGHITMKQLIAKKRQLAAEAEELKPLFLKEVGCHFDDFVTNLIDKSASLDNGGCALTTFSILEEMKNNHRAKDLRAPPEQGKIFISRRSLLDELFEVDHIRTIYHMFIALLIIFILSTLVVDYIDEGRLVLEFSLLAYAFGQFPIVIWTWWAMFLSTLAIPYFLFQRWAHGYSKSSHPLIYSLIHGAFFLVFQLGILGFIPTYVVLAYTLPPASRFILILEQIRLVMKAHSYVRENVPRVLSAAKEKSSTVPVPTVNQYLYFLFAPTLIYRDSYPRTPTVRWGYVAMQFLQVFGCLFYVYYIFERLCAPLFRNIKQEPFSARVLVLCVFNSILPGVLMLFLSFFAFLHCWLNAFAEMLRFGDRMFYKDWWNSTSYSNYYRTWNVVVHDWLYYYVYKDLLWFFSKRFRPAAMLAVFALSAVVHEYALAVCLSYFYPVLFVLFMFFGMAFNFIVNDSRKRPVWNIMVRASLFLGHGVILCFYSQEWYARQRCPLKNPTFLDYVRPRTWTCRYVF
# protocolText: Inhibition of enzymatic esterification of cholesterol (ACAT) in rat adrenal supernatant containing the microsomal fraction
# Assay type: biochemical
# runConditions: final concentration of test compound 5.2 μg./ml., percent inhibition of the ACAT enzyme compared to control values
# Experimental: The compounds of the present invention were tested for their ability to inhibit the enzymatic esterification of cholesterol according to the following procedure: Rat adrenals were homogenized in 0.2M monobasic potassium phosphate buffer, pH 7.4, and centrifuged at 1,000 times gravity for 15 minutes at 5° C. […] The cholesterol ester fraction was counted in a scintillation counter. […]
Please respond with the number in % and leave the unit unwritten.

Look over these answered cases.
Query block: Would you kindly share the measured inhibition at 5.2 µg/mL for "CCOC(=O)c1ccc(NC(=O)C=C(c2ccccc2)c2ccc(Cl)c([N+](=O)[O-])c2)cc1" ?
Result block: 94

Query block: Then this compound: "COc1ccc(C(CC(=O)Nc2ccc([N+](=O)[O-])cc2)c2ccc(OC)cc2)cc1"
Result block: 94

Query block: Then this compound: "O=C(C=C(c1ccc(Cl)cc1)c1ccc(Cl)cc1)Nc1cccc(C(=O)O)c1"
Result block: 98

Query block: Then this compound: "COc1ccc(C(CC(=O)Nc2ccc(C#N)cc2)c2ccc(OC)cc2)cc1"
Result block: 94

Others:
Query block: Would you kindly share the measured inhibition at 5.2 µg/mL for "Cc1ccc(NC(=O)CC(c2ccc(C)cc2)c2ccc(C)cc2)cc1" ?
Result block: 66
